# Tested on: PPARa:RXRa (NR concentration 270 nM, RXRa partner concentration 90 nM)
# experiment: PBM binding z-score (relative to random genomic background probes); higher = stronger binding; sequences stand for … in GC…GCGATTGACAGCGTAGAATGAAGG
For each record, write down the corresponding PBM binding z-score.
# respond with the number and nothing more

Form field PBM binding z-score, entry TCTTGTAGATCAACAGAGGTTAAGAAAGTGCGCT : 2.09

Form field PBM binding z-score, entry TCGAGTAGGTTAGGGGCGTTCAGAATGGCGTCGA : 0.892

Form field PBM binding z-score, entry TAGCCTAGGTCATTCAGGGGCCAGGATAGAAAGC : 3.69

Form field PBM binding z-score, entry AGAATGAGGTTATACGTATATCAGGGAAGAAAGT : 3.47

Form field PBM binding z-score, entry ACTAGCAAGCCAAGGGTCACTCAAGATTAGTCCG : 3.53

Form field PBM binding z-score, entry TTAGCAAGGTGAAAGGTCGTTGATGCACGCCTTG : 5.24

* * *

For each record, write down the corresponding PBM binding z-score.
# System: PXR:RXRa (NR concentration 270 nM, RXRa partner concentration 90 nM)
# experiment: PBM binding z-score (relative to random genomic background probes); higher = stronger binding; sequences stand for … in GC…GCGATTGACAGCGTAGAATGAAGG
# respond with the number and nothing more

Form field PBM binding z-score, entry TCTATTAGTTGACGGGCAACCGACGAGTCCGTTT : 0.38

Form field PBM binding z-score, entry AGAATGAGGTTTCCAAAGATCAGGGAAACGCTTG : -0.387

Form field PBM binding z-score, entry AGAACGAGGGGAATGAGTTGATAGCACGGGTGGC : -0.115

Form field PBM binding z-score, entry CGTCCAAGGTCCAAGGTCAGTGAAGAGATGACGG : 1.67

Form field PBM binding z-score, entry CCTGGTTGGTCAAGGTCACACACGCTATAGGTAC : 4.44

Form field PBM binding z-score, entry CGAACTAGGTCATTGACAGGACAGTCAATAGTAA : 1.66

* * *

For each record, write down the corresponding PBM binding z-score.
# Test system: LXRb:RXRa (NR concentration 270 nM, RXRa partner concentration 90 nM)
# experiment: PBM binding z-score (relative to random genomic background probes); higher = stronger binding; sequences stand for … in GC…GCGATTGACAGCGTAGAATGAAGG
# respond with the number and nothing more

PBM binding z-score on LXRb:RXRa (NR concentration 270 nM, RXRa partner concentration 90 nM) for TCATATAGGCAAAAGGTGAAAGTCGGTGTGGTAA is 1.6

PBM binding z-score on LXRb:RXRa (NR concentration 270 nM, RXRa partner concentration 90 nM) for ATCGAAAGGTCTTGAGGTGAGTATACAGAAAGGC is 0.394

PBM binding z-score on LXRb:RXRa (NR concentration 270 nM, RXRa partner concentration 90 nM) for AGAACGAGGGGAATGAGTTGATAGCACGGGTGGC is -0.228

PBM binding z-score on LXRb:RXRa (NR concentration 270 nM, RXRa partner concentration 90 nM) for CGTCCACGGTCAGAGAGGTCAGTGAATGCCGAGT is 1.77

PBM binding z-score on LXRb:RXRa (NR concentration 270 nM, RXRa partner concentration 90 nM) for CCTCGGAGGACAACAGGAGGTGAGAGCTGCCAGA is -0.619

PBM binding z-score on LXRb:RXRa (NR concentration 270 nM, RXRa partner concentration 90 nM) for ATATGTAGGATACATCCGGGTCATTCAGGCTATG is 1.61

PBM binding z-score on LXRb:RXRa (NR concentration 270 nM, RXRa partner concentration 90 nM) for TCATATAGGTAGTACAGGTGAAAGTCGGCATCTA is 0.84

PBM binding z-score on LXRb:RXRa (NR concentration 270 nM, RXRa partner concentration 90 nM) for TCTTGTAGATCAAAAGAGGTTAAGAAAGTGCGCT is 1.66

PBM binding z-score on LXRb:RXRa (NR concentration 270 nM, RXRa partner concentration 90 nM) for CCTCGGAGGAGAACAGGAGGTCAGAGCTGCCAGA is 1.43

PBM binding z-score on LXRb:RXRa (NR concentration 270 nM, RXRa partner concentration 90 nM) for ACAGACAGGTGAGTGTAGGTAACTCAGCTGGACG is -0.538

PBM binding z-score on LXRb:RXRa (NR concentration 270 nM, RXRa partner concentration 90 nM) for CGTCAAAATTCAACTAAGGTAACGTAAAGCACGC is 0.543

PBM binding z-score on LXRb:RXRa (NR concentration 270 nM, RXRa partner concentration 90 nM) for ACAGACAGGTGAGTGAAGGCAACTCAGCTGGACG is -0.733

* * *

# Test system: PXR homodimer (NR concentration 270 nM)
# experiment: PBM binding z-score (relative to random genomic background probes); higher = stronger binding; sequences stand for … in GC…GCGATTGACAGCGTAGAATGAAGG
Entry flag: Y if PBM binding z-score reaches -0.2; N if it does not.

Inquiry: Check the entry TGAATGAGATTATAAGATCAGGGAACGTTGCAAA : does PBM binding z-score equal or exceed -0.2?
Reply text: Y

Inquiry: Check the entry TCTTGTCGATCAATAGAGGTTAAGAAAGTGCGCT : does PBM binding z-score equal or exceed -0.2?
Reply text: Y

Inquiry: Check the entry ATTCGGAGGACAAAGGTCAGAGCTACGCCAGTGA : does PBM binding z-score equal or exceed -0.2?
Reply text: Y

Inquiry: Check the entry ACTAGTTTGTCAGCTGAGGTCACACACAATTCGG : does PBM binding z-score equal or exceed -0.2?
Reply text: Y

Inquiry: Check the entry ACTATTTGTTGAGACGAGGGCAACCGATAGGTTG : does PBM binding z-score equal or exceed -0.2?
Reply text: Y

Inquiry: Check the entry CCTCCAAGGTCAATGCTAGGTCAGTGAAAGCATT : does PBM binding z-score equal or exceed -0.2?
Reply text: Y

Inquiry: Check the entry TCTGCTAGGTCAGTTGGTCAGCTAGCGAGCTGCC : does PBM binding z-score equal or exceed -0.2?
Reply text: N

Inquiry: Check the entry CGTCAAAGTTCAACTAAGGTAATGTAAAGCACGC : does PBM binding z-score equal or exceed -0.2?
Reply text: Y

Inquiry: Check the entry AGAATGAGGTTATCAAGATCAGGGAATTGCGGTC : does PBM binding z-score equal or exceed -0.2?
Reply text: Y

Inquiry: Check the entry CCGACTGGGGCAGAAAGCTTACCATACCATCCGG : does PBM binding z-score equal or exceed -0.2?
Reply text: N

Inquiry: Check the entry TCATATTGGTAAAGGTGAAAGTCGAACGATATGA : does PBM binding z-score equal or exceed -0.2?
Reply text: Y

Inquiry: Check the entry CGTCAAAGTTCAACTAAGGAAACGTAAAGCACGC : does PBM binding z-score equal or exceed -0.2?
Reply text: Y

Inquiry: Check the entry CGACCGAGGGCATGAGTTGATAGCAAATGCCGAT : does PBM binding z-score equal or exceed -0.2?
Reply text: N

Inquiry: Check the entry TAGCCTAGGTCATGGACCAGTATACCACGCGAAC : does PBM binding z-score equal or exceed -0.2?
Reply text: N

Inquiry: Check the entry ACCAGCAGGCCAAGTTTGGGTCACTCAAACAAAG : does PBM binding z-score equal or exceed -0.2?
Reply text: N

Inquiry: Check the entry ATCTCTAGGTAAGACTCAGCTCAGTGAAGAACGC : does PBM binding z-score equal or exceed -0.2?
Reply text: Y

Inquiry: Check the entry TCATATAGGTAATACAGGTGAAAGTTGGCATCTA : does PBM binding z-score equal or exceed -0.2?
Reply text: Y

Inquiry: Check the entry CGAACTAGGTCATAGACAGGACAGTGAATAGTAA : does PBM binding z-score equal or exceed -0.2?
Reply text: Y

Inquiry: Check the entry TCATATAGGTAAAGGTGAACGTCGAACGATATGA : does PBM binding z-score equal or exceed -0.2?
Reply text: Y

Inquiry: Check the entry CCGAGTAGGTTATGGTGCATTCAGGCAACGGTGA : does PBM binding z-score equal or exceed -0.2?
Reply text: Y

Inquiry: Check the entry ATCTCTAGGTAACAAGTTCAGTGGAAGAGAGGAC : does PBM binding z-score equal or exceed -0.2?
Reply text: Y

Inquiry: Check the entry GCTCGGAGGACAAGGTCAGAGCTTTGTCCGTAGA : does PBM binding z-score equal or exceed -0.2?
Reply text: N

Inquiry: Check the entry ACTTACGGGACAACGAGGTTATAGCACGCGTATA : does PBM binding z-score equal or exceed -0.2?
Reply text: Y

Inquiry: Check the entry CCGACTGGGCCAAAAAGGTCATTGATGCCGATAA : does PBM binding z-score equal or exceed -0.2?
Reply text: Y

Inquiry: Check the entry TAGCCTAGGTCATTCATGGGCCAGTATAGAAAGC : does PBM binding z-score equal or exceed -0.2?
Reply text: Y

Inquiry: Check the entry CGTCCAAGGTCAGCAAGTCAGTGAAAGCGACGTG : does PBM binding z-score equal or exceed -0.2?
Reply text: Y
